Quantity Name: melting point

Observe how each entry below is paired with its result.
Exercise: // returns reported melting point for input CCCCN(CCCC)c1ccc(C=CC=Cc2ccc(C=CC3=C(C#N)C(=C(C#N)C#N)OC3(C)C(F)(F)F)s2)c(OC)c1 (centres undefined)
Key: 161 to 162 °C

Exercise: // returns reported melting point for input `N#Cc1cc(F)c(Cl)c(Br)c1Cl`
Key: 110 to 112 °C

Exercise: // returns reported melting point for input `COc1c(C(=O)O)nnn1Cc1ccccc1Cl`
Key: 130 to 135 °C

Others:
Exercise: // returns reported melting point for input `O=C(Nc1cccnc1)N1CCc2cc(Cl)c(Cl)cc21`
Key: 236 to 238 °C

Exercise: // returns reported melting point for input `COc1ccc(-c2cc3cc(F)c(F)cc3[nH]2)cc1NC(=S)Nc1cccc(C(=O)O)c1`
Key: 221 to 223 °C

Exercise: // returns reported melting point for input `COc1ccc(S(=O)(=O)Nc2cccnc2NC(=O)c2ccccc2C)cc1`
Key: 160 to 162 °C

Exercise: // returns reported melting point for input `C=CCCCn1ncc2c(N)c(C(=O)OCC=C)c(C)nc21`
Key: 62 to 62.5 °C

Exercise: // returns reported melting point for input `Cc1c(C(=O)c2ccccc2)ccc(O)c1CC(=O)O`
Key: 212 °C

Exercise: // returns reported melting point for input `O=C1c2ccccc2S(=O)(=O)N1/C=C/CSc1nnnn1-c1ccccc1`
Key: 191 to 193 °C

Exercise: // returns reported melting point for input `CCC1(CC)CC(c2ccc(OC)c(OC)c2)=NN(C2CCN(C(=O)c3ccccc3)CC2)C1=O`
Key: 160 to 161 °C

Exercise: // returns reported melting point for input `CC(C)(C)OC(=O)N[C@@H](Cc1ccccc1)C(=O)CCC(=O)N[C@@H](Cc1c[nH]c2ccccc12)C(=O)O`
Key: 141 to 143 °C
